I'd appreciate it if you could supply Kd values for the items below.
# System tested: FGFR4 (Homo sapiens (Human), UniProt P22455)
# Sequence (P22455 22-802): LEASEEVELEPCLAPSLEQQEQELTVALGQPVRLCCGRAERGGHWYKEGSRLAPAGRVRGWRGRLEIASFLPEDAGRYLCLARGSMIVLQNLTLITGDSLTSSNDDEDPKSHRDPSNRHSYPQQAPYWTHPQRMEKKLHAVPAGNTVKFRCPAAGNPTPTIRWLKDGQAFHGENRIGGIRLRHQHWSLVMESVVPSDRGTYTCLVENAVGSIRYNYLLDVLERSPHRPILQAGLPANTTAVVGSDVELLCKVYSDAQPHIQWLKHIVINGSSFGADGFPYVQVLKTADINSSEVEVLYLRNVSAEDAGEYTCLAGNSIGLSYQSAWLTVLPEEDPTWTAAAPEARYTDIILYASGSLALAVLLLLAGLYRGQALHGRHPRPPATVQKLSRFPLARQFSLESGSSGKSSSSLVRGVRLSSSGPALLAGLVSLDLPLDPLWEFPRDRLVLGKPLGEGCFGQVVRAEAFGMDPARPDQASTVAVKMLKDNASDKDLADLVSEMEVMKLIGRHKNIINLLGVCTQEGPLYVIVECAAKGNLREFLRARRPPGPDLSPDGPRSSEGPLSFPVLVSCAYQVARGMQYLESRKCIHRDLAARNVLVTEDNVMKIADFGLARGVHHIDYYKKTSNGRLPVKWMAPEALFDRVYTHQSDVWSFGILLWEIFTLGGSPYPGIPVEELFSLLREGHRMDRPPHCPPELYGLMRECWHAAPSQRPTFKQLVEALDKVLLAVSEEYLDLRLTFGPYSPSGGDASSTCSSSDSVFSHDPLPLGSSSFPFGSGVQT
# Procedure details: Kinase assay, binding constants (Kd), kinase-tagged T7 phage, qPCR

Using the record for `COc1cc2[nH]nc(-c3cnc(N4CC[C@@H]4C)c(F)c3)c2cc1O[C@H](C)c1c(Cl)cncc1Cl` , report its Kd.
1 to 20 nM

Using the record for `COc1cc2[nH]nc(-c3ccc(N4CC(O)C4)nc3)c2cc1O[C@H](C)c1c(Cl)cnc(C)c1Cl` , report its Kd.
1 to 20 nM

Using the record for `CCOC(=O)N1CC2(C1)CN(c1ccc(-c3n[nH]c4ccc(O[C@H](C)c5c(Cl)cnc(C)c5Cl)cc34)cn1)C2` , report its Kd.
20 to 100 nM

Using the record for `COc1cc2[nH]nc(-c3cnc(N4CCC4)c(F)c3)c2cc1O[C@H](C)c1c(Cl)cncc1Cl` , report its Kd.
1 to 20 nM

Using the record for `Cc1cnnc(C)c1[C@@H](C)Oc1ccc2[nH]nc(-c3cnc(N4CC5CC(C4)N5)c(C#N)c3)c2c1` , report its Kd.
1 to 20 nM

Using the record for `COC(=O)N1CC2(C1)CN(c1ccc(-c3n[nH]c4ccc(O[C@@H](C)c5c(C)cnnc5C)cc34)cn1)C2` , report its Kd.
100 to 300 nM

Using the record for `Cc1cnnc(C)c1[C@@H](C)Oc1ccc2[nH]nc(-c3cnc(N4CC[C@H](O)C4)c(C#N)c3)c2c1` , report its Kd.
1 to 20 nM

----------
# Tested on: KG-1 cells (FGFR1-fusion)
# Procedure details: KG-1 cancer cell line cell viability assay (CellTiter-Glo 2.0)
# Type: cell-based
# Test conditions: Homo sapiens, 72 hours, Cell Titer Glo 2.0
I'd appreciate it if you could supply IC50 values for the items below.

State its IC50 on KG-1 cells (FGFR1-fusion): `C[C@@H](Oc1ccc2[nH]nc(-c3cnc(N4CCNCC4)c(F)c3)c2c1)c1c(Cl)cncc1Cl`
20 to 100 nM

State its IC50 on KG-1 cells (FGFR1-fusion): C[C@@H](Oc1ccc2[nH]nc(-c3cnc(N4CCC5(CCS(=O)(=O)C5)C4)nc3)c2c1)c1c(Cl)cncc1Cl (stereo partly drawn)
100 to 300 nM

State its IC50 on KG-1 cells (FGFR1-fusion): `C[C@@H](Oc1ccc2[nH]nc(-c3ccc(N4CC5(CN(C(=O)N(C)C)C5)C4)nc3)c2c1)c1c(Cl)cncc1Cl`
100 to 300 nM

State its IC50 on KG-1 cells (FGFR1-fusion): `C[C@@H](Oc1ccc2[nH]nc(-c3cnc(N4CCN(S(C)(=O)=O)CC4)nc3)c2c1)c1c(Cl)cncc1Cl`
100 to 300 nM

State its IC50 on KG-1 cells (FGFR1-fusion): `C[C@@H](Oc1ccc2[nH]nc(-c3ccc(N4CC5(C4)CN(S(C)(=O)=O)C5)nc3)c2c1)c1c(Cl)cncc1Cl`
20 to 100 nM

State its IC50 on KG-1 cells (FGFR1-fusion): `CCS(=O)(=O)N1CC2(CN(c3ccc(-c4n[nH]c5ccc(O[C@H](C)c6c(Cl)cncc6Cl)cc45)cn3)C2)C1`
100 to 300 nM

State its IC50 on KG-1 cells (FGFR1-fusion): `C[C@@H](Oc1ccc2[nH]nc(-c3ccc(N4CC5(CCN5C)C4)nc3)c2c1)c1c(Cl)cncc1Cl`
20 to 100 nM

State its IC50 on KG-1 cells (FGFR1-fusion): `C[C@@H](Oc1ccc2[nH]nc(-c3ccc(N4CCC5(CC4)C(=O)NCCN5C)nc3)c2c1)c1c(Cl)cncc1Cl`
20 to 100 nM

State its IC50 on KG-1 cells (FGFR1-fusion): `C[C@@H](Oc1ccc2[nH]nc(-c3cnc(N4CC5(CCS(=O)(=O)C5)C4)nc3)c2c1)c1c(Cl)cncc1Cl`
100 to 300 nM

State its IC50 on KG-1 cells (FGFR1-fusion): `C[C@@H](Oc1ccc2[nH]nc(-c3cnc(N4CCN(C(=O)N5CCN(C)CC5)CC4)nc3)c2c1)c1c(Cl)cncc1Cl`
20 to 100 nM

State its IC50 on KG-1 cells (FGFR1-fusion): `C[C@@H](Oc1ccc2[nH]nc(-c3ccc(N4CC5CC(C4)N5S(C)(=O)=O)nc3)c2c1)c1c(Cl)cncc1Cl`
100 to 300 nM

State its IC50 on KG-1 cells (FGFR1-fusion): `C[C@@H](Oc1ccc2[nH]nc(-c3ccc(N4CCN(C(=O)N5CCOCC5)CC4)nc3)c2c1)c1c(Cl)cncc1Cl`
20 to 100 nM

State its IC50 on KG-1 cells (FGFR1-fusion): `C[C@@H](Oc1ccc2[nH]nc(-c3cnc(N4CCC5(CCCN5C)CC4)nc3)c2c1)c1c(Cl)cncc1Cl`
20 to 100 nM

State its IC50 on KG-1 cells (FGFR1-fusion): `C[C@@H](Oc1ccc2[nH]nc(-c3cnc(N4CCC5(CCN(C)C5=O)CC4)nc3)c2c1)c1c(Cl)cncc1Cl`
100 to 300 nM

State its IC50 on KG-1 cells (FGFR1-fusion): `C[C@@H](Oc1ccc2[nH]nc(-c3cnc(N4CCC5(CC4)CNC(=O)C5)nc3)c2c1)c1c(Cl)cncc1Cl`
100 to 300 nM

State its IC50 on KG-1 cells (FGFR1-fusion): `C[C@@H](Oc1ccc2[nH]nc(-c3ccc(N4CCNC(=O)CC4)nc3)c2c1)c1c(Cl)cncc1Cl`
20 to 100 nM

State its IC50 on KG-1 cells (FGFR1-fusion): `C[C@@H](Oc1ccc2[nH]nc(-c3ccc(N4CCC5(CCNC5=O)CC4)nc3)c2c1)c1c(Cl)cncc1Cl`
100 to 300 nM

State its IC50 on KG-1 cells (FGFR1-fusion): `C[C@@H](Oc1ccc2[nH]nc(-c3cnc(N4CCC5(CCC(=O)N5)CC4)c(F)c3)c2c1)c1c(Cl)cncc1Cl`
20 to 100 nM

State its IC50 on KG-1 cells (FGFR1-fusion): `Cc1cncc(C)c1[C@@H](C)Oc1ccc2[nH]nc(-c3ccc(N4CC5(C4)CN(S(C)(=O)=O)C5)nc3)c2c1`
100 to 300 nM

State its IC50 on KG-1 cells (FGFR1-fusion): `CCOC(=O)N1CC2(C1)CN(c1ccc(-c3n[nH]c4ccc(O[C@H](C)c5c(C)cnnc5C)cc34)cn1)C2`
100 to 300 nM

State its IC50 on KG-1 cells (FGFR1-fusion): `C[C@@H](Oc1ccc2[nH]nc(-c3ccc(N4CCS(=O)(=O)CC4)nc3)c2c1)c1c(Cl)cncc1Cl`
100 to 300 nM

State its IC50 on KG-1 cells (FGFR1-fusion): `C[C@@H](Oc1ccc2[nH]nc(-c3cnc(N4CC5(C4)CN(S(C)(=O)=O)C5)nc3)c2c1)c1c(Cl)cncc1Cl`
100 to 300 nM

State its IC50 on KG-1 cells (FGFR1-fusion): `C[C@@H](Oc1ccc2[nH]nc(-c3cnc(N4CCNCC4)nc3)c2c1)c1c(Cl)cncc1Cl`
20 to 100 nM

State its IC50 on KG-1 cells (FGFR1-fusion): `C[C@@H](Oc1ccc2[nH]nc(-c3ccc(N4CCC5(CC4)CN(C)CC(=O)N5C)nc3)c2c1)c1c(Cl)cncc1Cl`
20 to 100 nM

State its IC50 on KG-1 cells (FGFR1-fusion): CC(Oc1ccc2[nH]nc(-c3ccc(N4CC5(C4)CN(S(C)(=O)=O)C5)nc3)c2c1)c1c(Cl)ccnc1Cl (stereo not drawn)
100 to 300 nM

State its IC50 on KG-1 cells (FGFR1-fusion): `C[C@@H](Oc1ccc2[nH]nc(-c3ccc(N4CCN(S(C)(=O)=O)CC4)nc3)c2c1)c1c(Cl)cncc1Cl`
20 to 100 nM

State its IC50 on KG-1 cells (FGFR1-fusion): `C[C@@H](Oc1ccc2[nH]nc(-c3ccc(N4CCN(C(=O)N(C)C)C5(CC5)C4)nc3)c2c1)c1c(Cl)cncc1Cl`
100 to 300 nM

Reference for the values: patent US20240109865A1
